Data origin, for the record: PubChem BioAssay (NCATS)

- METHOD: Primary qHTS for inhibitors of nuclear receptor binding SET domain protein 2 (NSD2) in an RCH-ACV wild type WT cells (2C) (AID 1645877); note: nearly all actives have a fitted effect of over 70% in size
- STATED_CONDITIONS: RCH-ACV (leukaemia line) NSD2 WT (2C) viability, CellTiter-Glo, 72 h; series mostly up to 44.9 µM
- Source text: Assay Provider: Jonathan D. Licht, MD University of Florida College of Medicine, Gainesville, FL Mutations in epigenetic regulators are common in relapsed pediatric acute lymphoblastic leukemia (ALL). Here, we uncovered the mechanism underlying the relapse of ALL driven by an activating mutation of the NSD2 histone methyltransferase (p.E1099K). […] Correction of this mutation restored glucocorticoid sensitivity. […]
Results filed as inconclusive are left out. Active and inactive are the calls of the source. Calls come from the whole dose curve; as a rule, active = well fitted inhibition curve with a large enough effect; inconclusive = small, poorly fitted or top-dose-only effect; inactive = no such curve, though single readings can be large or run the other way.
Form entry, call: pick from True for active, False for inactive

Example results:
COc1cc2c(cc1O)CC[C@@H]1[C@@H]2CC[C@]2(C)[C@@H](O)CC[C@@H]12 ... True
COc1cccc(OC)c1C(=O)N[C@@H]1C(=O)N2[C@@H]1SC(C)(C)[C@@H]2C(=O)O ... False

Please turn your attention to the following entry.
Q: Test call for this molecule, please: `Cc1c(C(N)=O)cc([N+](=O)[O-])cc1[N+](=O)[O-]`
Result: False

* * *

- System: CP269
- METHOD: qHTS profiling for inhibitors of Plasmodium falciparum proliferation (AID 504749); note: nearly all actives have a fitted effect of over 60% in size
- STATED_CONDITIONS: P. falciparum in erythrocytes, SYBR Green DNA, 72 h; series mostly up to 28.7 µM
Records with an inconclusive call do not appear. Activity calls are given as the source filed them. Calls come from the whole dose curve; as a rule, active = well fitted inhibition curve with a large enough effect; inconclusive = small, poorly fitted or top-dose-only effect; inactive = flat fitted curve, though single readings scatter.
Form entry, call: pick from label 1 (active), label 0 (inactive)

CCOc1ccc(NC(=O)CC(C)O)cc1 (centres undefined) ... label 0

Q: Test call for this compound, please: CCN(CC)CCOc1ccc(C(O)(Cc2ccc(Cl)cc2)c2ccc(C)cc2)cc1 (centres undefined)
Result: label 1

Q: Next compound: C[C@H]1[C@H](NC(=O)/C(=N/OC(C)(C)C(=O)O)c2csc(N)n2)C(=O)N1S(=O)(=O)O (stereo in doubt)
Result: label 0

Q: Next compound: CCCCCCCCCCOCC(O)CN (centres undefined)
Result: label 0

* * *

- System: N140
- METHOD: qHTS profiling for inhibitors of Plasmodium falciparum proliferation (AID 504749); note: nearly all actives have a fitted effect of over 60% in size
- STATED_CONDITIONS: P. falciparum in erythrocytes, SYBR Green DNA, 72 h; series mostly up to 28.7 µM
Results filed as inconclusive are left out. The source made the active and inactive calls. The call rests on the fitted dose curve; in most records, active means well fitted inhibition curve with a large enough effect; inconclusive means small, poorly fitted or top-dose-only effect; inactive means flat fitted curve, though single readings scatter.
Form entry, call: pick from True (active), False (inactive)

Example results:
COc1ccc(C2C(=O)c3ccccc3C2=O)cc1 ... False
COc1ccc(CN2CCN(C(c3ccc(F)cc3)c3ccc(F)cc3)CC2)c(OC)c1OC ... True

Please turn your attention to the following entry.
Q: Test call for this compound, please: `CCCCCCC[N+](CC)(CC)CCCCc1ccc(Cl)cc1`
Result: True

* * *

- METHOD: qHTS of pediatric cancer cell lines to identify multiple opportunities for drug repurposing: Primary screen for LAN-5 cells (AID 1347100)
- STATED_CONDITIONS: LAN-5 neuroblastoma viability, CellTiter-Glo luminescence, 48 h; series mostly up to 46 µM
Results filed as inconclusive are left out. Activity calls are given as the source filed them. The call rests on the fitted dose curve; in most records, active means well fitted cell-killing curve with a large enough effect; inconclusive means small, poorly fitted or top-dose-only effect; inactive means no such curve, though single readings can be large or run the other way.
Form entry, call: pick from active, inactive

Example results:
CCCCc1nc(Cl)c(CO)n1Cc1ccc(-c2ccccc2-c2nn[nH]n2)cc1 ... inactive
CN1[C@@H]2CC[C@H]1CC(OC(=O)c1c[nH]c3ccccc13)C2 (some centres not stated) ... inactive
CCN1CCN(c2cc3c(cc2F)c(=O)c(C(=O)O)cn3C2CC2)CC1 ... inactive
COc1c2occc2c(OC)c2c(=O)cc(C)oc12 ... inactive
COCc1c(C(C)C)nc(C(C)C)c(/C=C/[C@@H](O)C[C@@H](O)CC(=O)O)c1-c1ccc(F)cc1 ... active

Q: Test call for this molecule, please: `Oc1cc(O)c2c(c1)O[C@H](c1ccc(O)c(O)c1)[C@H](O)C2`
Result: inactive

Q: Next molecule: `CC(C)N=C(N)/N=C(\N)Nc1ccc(Cl)cc1`
Result: inactive

* * *

- METHOD: qHTS of pediatric cancer cell lines to identify multiple opportunities for drug repurposing: Primary screen for SK-N-MC cells (AID 1347093); note: potency is the fitted concentration of half-maximal effect
- STATED_CONDITIONS: SK-N-MC viability, CellTiter-Glo luminescence, 48 h; series mostly up to 46 µM
Results filed as inconclusive are left out. The source made the active and inactive calls. Calls follow the shape of the dose curve; as a rule, active = well fitted cell-killing curve with a large enough effect; inconclusive = small, poorly fitted or top-dose-only effect; inactive = no such curve, though single readings can be large or run the other way.
READOUT: Potency

Guide cases for Potency, answers given:
CCOc1ccc(NC(=O)CC(C)O)cc1 (configuration not stated) ... inactive
CC(C)(C(=O)c1cccnc1)c1cccnc1 ... inactive
CCOC(=O)OC(C)OC1=C(C(=O)Nc2ccccn2)N(C)S(=O)(=O)c2ccccc21 (configuration not stated) ... inactive
NC(CO)(CO)CO ... inactive
CC1(C)O[C@@H]2[C@@H](CO[C@@]3(COS(N)(=O)=O)OC(C)(C)O[C@@H]23)O1 ... inactive

Q: Need Potency, item `COc1cccc2c1C(=O)c1c(O)c3c(c(O)c1C2=O)C[C@@](O)(C(=O)CO)C[C@@H]3O[C@H]1C[C@H](N)[C@H](O)[C@H](C)O1`
Result: 668 nM (active)

Q: Next compound: `COc1cc(C=C2CCC/C(=C\c3ccc(O)c(OC)c3)C2=O)ccc1O`
Result: 335 nM (active)

Q: Next compound: `CN1CCN(C(c2ccccc2)c2ccccc2)CC1`
Result: inactive

Q: Next compound: `CCCCC1=NC2(CCCC2)C(=O)N1Cc1ccc(-c2ccccc2-c2nn[nH]n2)cc1`
Result: inactive

Q: Next compound: `CC(C)(C)NC(=O)[C@@H]1CN(Cc2cccnc2)CCN1C[C@@H](O)C[C@@H](Cc1ccccc1)C(=O)N[C@H]1c2ccccc2C[C@H]1O`
Result: inactive

Q: Next compound: `OC[C@H]1O[C@H](O[C@]2(CCl)O[C@H](CCl)[C@@H](O)[C@@H]2O)[C@H](O)[C@@H](O)[C@H]1Cl`
Result: inactive

Q: Next compound: `CCN(CC)C(=O)N1CCN(C)CC1`
Result: inactive

* * *

- METHOD: Drug repurposing screens with cells derived from glioblastoma tumor samples (AID 1345199); note: % is set by controls: 0 for no effect and ±100 for the full control effect; nearly all actives have a fitted effect of over 40% in size
- STATED_CONDITIONS: GBM patient neurospheres viability, ATP luminescence, 48 h; at 45.9 µM (top of the series); tumour line B
Inconclusive results are not listed.
Labelling field: enter criterion met if recorded activity, negative = cell killing is less than -10%. Enter criterion not met if it equals or exceeds that cut-off.

Example results:
CN(C)/N=N/c1nc[nH]c1C(N)=O ... criterion met
Cc1cc(=O)n(-c2ccccc2)n1C ... criterion not met
C[C@]12CC[C@@H]3c4ccc(O)cc4CC[C@H]3[C@@H]1CC[C@@H]2O ... criterion met
N[C@@H](Cc1cnc[nH]1)C(=O)O ... criterion met
Cc1cccn2c(=O)c(-c3nnn[nH]3)cnc12 ... criterion not met

Q: Please state whether activity, negative = cell killing is below -10% for `N[C@@H](CCC(=O)N[C@@H](CS)C(=O)NCC(=O)O)C(=O)O`
Result: criterion met

Q: Next molecule: `COc1cc(-c2ccc(=O)[nH]n2)ccc1OC(F)F`
Result: criterion not met

* * *

- Tested on: CP252
- METHOD: qHTS profiling for inhibitors of Plasmodium falciparum proliferation (AID 504749); note: nearly all actives have a fitted effect of over 60% in size
- STATED_CONDITIONS: P. falciparum in erythrocytes, SYBR Green DNA, 72 h; series mostly up to 28.7 µM
Inconclusive results are not listed. Active and inactive are the calls of the source. Calls come from the whole dose curve; as a rule, active = well fitted inhibition curve with a large enough effect; inconclusive = small, poorly fitted or top-dose-only effect; inactive = flat fitted curve, though single readings scatter.
Form entry, call: pick from yes = active, no = inactive

Q: Test call for this molecule, please: `CC(=O)Oc1ccc(C(=C2CCCCC2)c2ccc(OC(C)=O)cc2)cc1`
Result: no

Q: Next molecule: `COc1cc(OC)cc(OC)c1`
Result: no

Q: Next molecule: `Cc1ccnc(NS(=O)(=O)c2ccc(N)cc2)n1`
Result: no

Q: Next molecule: `Cc1cc(O)c(C(C)C)cc1Cl`
Result: no

* * *

- Test system: 3D7
- METHOD: qHTS profiling for inhibitors of Plasmodium falciparum proliferation (AID 504749); note: nearly all actives have a fitted effect of over 60% in size; note: potency is the fitted concentration of half-maximal effect
- STATED_CONDITIONS: P. falciparum in erythrocytes, SYBR Green DNA, 72 h; series mostly up to 28.7 µM
Records with an inconclusive call do not appear. The source made the active and inactive calls. The call rests on the fitted dose curve; in most records, active means well fitted inhibition curve with a large enough effect; inconclusive means small, poorly fitted or top-dose-only effect; inactive means flat fitted curve, though single readings scatter.
READOUT: Potency

Cc1cccn2c(=O)c(-c3nnn[nH]3)cnc12 ... inactive
CCn1cc(C(=O)O)c(=O)c2cnc(N3CCCC3)nc21 ... inactive
Cc1ccnc(NS(=O)(=O)c2ccc(N)cc2)n1 ... inactive
C[C@@H]1C[C@H]2[C@@H]3CCC4=CC(=O)C=C[C@]4(C)[C@@]3(F)[C@@H](O)C[C@]2(C)[C@H]1C(=O)CO ... inactive
CC(C)(Oc1ccc(Cl)cc1)C(=O)O ... inactive
COc1cc2c(cc1OC)C(=O)C(CC1CCN(Cc3ccccc3)CC1)C2 (centres undefined) ... inactive
CCCCCCCCCCCCCCCCOP(=O)([O-])OCC[N+](C)(C)C ... inactive
Cc1c(C)n(Cc2ccccc2)c2ccc(C(=O)OCCN(C)C)cc12 ... inactive

Q: Need Potency, item `CN1CCC[C@@H]1c1cccnc1`
Result: inactive

Q: Next compound: `Cc1cc(N)c2cc(NC(=O)Nc3ccc4nc(C)cc(N)c4c3)ccc2n1`
Result: 7.08 µM (active)

Q: Next compound: `CN(C(=O)CN(CCO)CC(=O)N(C)C(C)(C)Cc1ccccc1)C(C)(C)Cc1ccccc1`
Result: inactive

Q: Next compound: `COc1c2occc2c(OC)c2c(=O)cc(C)oc12`
Result: inactive

Q: Next compound: `Cc1c(C(C)C)c(=O)n(-c2ccccc2)n1C`
Result: inactive

Q: Next compound: `CN1CCC(=C2c3ccccc3Sc3ccccc32)CC1`
Result: 8.91 µM (active)
